Each item that follows carries a reported Serum PFAS level, 25 percentile.
- Measurement Protocol: PFAS levels in serum samples of airport employees (LC/MS/MS)
- Condition Context: 3rd sampling (November, 2018), count 17
I only need the number, thanks.

Chem Smiles: O=S(=O)(O)C(F)(F)C(F)(F)C(F)(F)C(F)(F)C(F)(F)F
Serum PFAS level, 25 percentile: 4.4

Inquiry: In one line, give reported Serum PFAS level, 25 percentile of the entry O=S(=O)(O)C(F)(F)C(F)(F)C(F)(F)C(F)(F)C(F)(F)C(F)(F)C(F)(F)C(F)(F)F .
Reply text: 7.3

----------
Listed here: items and their measured half-life.
- Measurement Protocol: Individual serum elimination rate and half-life (linear regression per employee);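 as to HL (half-life): half-life in years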
- Condition Context: human, serum, oral, HL (half-life), individual estimate, subject 7, 5 samples
- Description: Serum PFAS concentrations were log-transformed. Time was calculated as the elapsed days between supply of clean bottled water and […] blood sampling. We assumed one compartment, first-order elimination kinetics. […] Method 2: For estimation of individual k, linear regression was used to derive the slope ( β ) of the logarithm of serum concentrations vs. time for each employee. […] If β was positive (i.e., PFAS concentrations tended to increase over the five samplings), the half-life was not calculated.
Use days as the unit, but write only the number.

Solved cases (2 shown):
Chem Smiles: O=S(=O)(O)C(F)(F)C(F)(F)C(F)(F)C(F)(F)C(F)(F)C(F)(F)F
half-life (days): 840
--
Chem Smiles: O=C(O)C(F)(F)C(F)(F)C(F)(F)C(F)(F)C(F)(F)C(F)(F)C(F)(F)F
half-life (days): 584

Inquiry: Give the reported half-life for this compound. O=C(O)C(F)(F)C(F)(F)C(F)(F)C(F)(F)C(F)(F)C(F)(F)F
Reply text: 36.5

----------
- Measurement Protocol: Individual serum elimination rate and half-life (linear regression per employee);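 as to HL (half-life): half-life in years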
- Condition Context: individual estimate, subject 2, 5 samples
Property Measured: HL (half-life) (year)
Provide the reading as a plain figure in year.

Compound: O=S(=O)(O)C(F)(F)C(F)(F)C(F)(F)C(F)(F)C(F)(F)C(F)(F)C(F)(F)F [PFHpS, perfluoroheptane sulfonic acid]
Unit Spec: year
Test Result: 3.4
--
Compound: O=S(=O)(O)C(F)(F)C(F)(F)C(F)(F)C(F)(F)C(F)(F)C(F)(F)C(F)(F)C(F)(F)F [L-PFOS, linear perfluorooctane sulfonic acid]
Unit Spec: year
Test Result: 1.7
--
Compound: O=S(=O)(O)C(F)(F)C(F)(F)C(F)(F)C(F)(F)C(F)(F)F [PFPeS, perfluoropentane sulfonic acid]
Unit Spec: year
Test Result: 1.2
--
Compound: O=S(=O)(O)C(F)(C(F)(F)F)C(F)(F)C(F)(F)C(F)(F)C(F)(F)C(F)(F)C(F)(F)F (centres unmarked) [1m-PFOS, perfluoro-1-methylheptanesulfonate]
Unit Spec: year
Test Result: 5.4

We next turn to a different compound, shown below.
Inquiry: Note HL (half-life) for the compound shown: O=S(=O)(O)C(F)(F)C(F)(F)C(F)(F)C(F)(F)F [PFBS, perfluorobutane sulfonic acid]
Reply text: 0.2

----------
- Measurement Protocol: Individual serum elimination rate and half-life (linear regression per employee);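 as to HL (half-life): half-life in years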
- Condition Context: human, serum, oral, HL (half-life), individual estimate, subject 4, 5 samples
Property Measured: half-life (days)
Provide only the numeric value, understood in days.

As a guide, the following entries are already answered.
Chem Smiles: O=S(=O)(O)C(F)(F)C(F)(F)C(F)(F)C(F)(F)C(F)(F)C(F)(F)F
Property Measured: half-life
Test Result: 3510
--
Chem Smiles: O=C(O)C(F)(F)C(F)(F)C(F)(F)C(F)(F)C(F)(F)C(F)(F)C(F)(F)F
Property Measured: half-life
Test Result: 840

Inquiry: Annotate the compound O=C(O)C(F)(F)C(F)(F)C(F)(F)C(F)(F)C(F)(F)C(F)(F)F with its measured half-life.
Reply text: 73

This collection of values is drawn from paper PMC7351026.
